System: IGROV1 ovarian
experiment summary: NCI tumour cell line growth inhibition, 48 h
observation type: TGI

[[record]]
molecule = "C#CCN(N=O)C(=O)ON1C(=O)CCC1=O"
observation_type = "TGI"
meas_value = "> 100 µM"

[[record]]
molecule = "O=C(NN1C(=O)CSC1c1cccc(Cl)c1)C(O)c1ccccc1 (stereo not given)"
observation_type = "TGI"
meas_value = "> 100 µM"

[[record]]
molecule = "Cc1ccc(-c2c(-c3ccccc3)[nH]c(C)c2C(=O)ONC(=O)c2ccccc2)cc1"
observation_type = "TGI"
meas_value = "3.15 µM"

[[record]]
molecule = "Cc1cn(-c2cccc(NC(=O)c3ccc(C)c(Nc4nccc(-c5cccnc5)n4)c3)c2)cn1"
observation_type = "TGI"
meas_value = "3.92 µM"

[[record]]
molecule = "CC(C)=NOC(=O)CNC(=O)C(Cc1ccccc1)NC(=O)C(C)NC(=O)OC(C)(C)C (stereo not given)"
observation_type = "TGI"
meas_value = "> 100 µM"

[[record]]
molecule = "O=C(c1ccc2ccccc2c1)c1nc2cc(F)ccc2[n+]([O-])c1C(F)(F)F"
observation_type = "TGI"
meas_value = "21.6 µM"

[[record]]
molecule = "COc1cc(/C=N/N=C(\\N)NO)cc(OC)c1OC"
observation_type = "TGI"
meas_value = "> 100 µM"

[[record]]
molecule = "CC(=O)c1ccc(NC(=O)C(=O)C(C(=O)/C=C/c2ccccc2)C2OC(=O)c3ccccc32)cc1 (stereo not given)"
observation_type = "TGI"
meas_value = "> 100 µM"

[[record]]
molecule = "CC1(C)OC(=S)N(c2ccccc2)C12C=Cc1cc3ccccc3nc1S2 (stereo not given)"
observation_type = "TGI"
meas_value = "> 100 µM"

[[record]]
molecule = "Nc1ccc(-c2nc3ccc(F)cc3s2)cc1Cl"
observation_type = "TGI"
meas_value = "> 100 µM"


* * *

Some compounds, each annotated with its measured TGI.
Tested on: CAKI-1 renal
experiment summary: NCI tumour cell line growth inhibition, 48 h
observation type: TGI

[[record]]
compound = "COc1c2c(nc3ccccc13)-c1cc(C(CC(=O)OC(C)(C)C)C(=O)OC(C)C)c(CO)c(=O)n1C2 (configuration not stated)"
observation_type = "TGI"
meas_value = "> 100 µM"

[[record]]
compound = "O=C1CCC2(c3ccccc3)Nc3ccccc3N12 (configuration not stated)"
observation_type = "TGI"
meas_value = "> 100 µM"

[[record]]
compound = "Cc1ccc(S(=O)(=O)CNC(=O)C(O)(O)C(F)(F)F)cc1"
observation_type = "TGI"
meas_value = "> 100 µM"

[[record]]
compound = "CC1CN=C(Nc2cccc(F)c2)S1 (configuration not stated)"
observation_type = "TGI"
meas_value = "> 100 µM"

[[record]]
compound = "Nc1ccccc1C#CC(=O)c1cccc(C(F)(F)F)c1"
observation_type = "TGI"
meas_value = "13.5 µM"

[[record]]
compound = "Cc1cn(-c2cccc(NC(=O)c3ccc(C)c(Nc4nccc(-c5cccnc5)n4)c3)c2)cn1"
observation_type = "TGI"
meas_value = "3.05 µM"

[[record]]
compound = "Clc1ccc(/C=C/c2ccc3ccccc3n2)cc1"
observation_type = "TGI"
meas_value = "> 57.9 µM"

[[record]]
compound = "COc1ccc(Nc2nc(Nc3cc(C)[nH]n3)c3cc(OC)c(OC)cc3n2)cc1"
observation_type = "TGI"
meas_value = "2.95 µM"

[[record]]
compound = "Cn1c(=Nc2ccc(Cl)cc2)sc2ccccc21"
observation_type = "TGI"
meas_value = "> 100 µM"

[[record]]
compound = "COc1cc2c(c3c1c(=O)c1ccccc1n3C)C=CC(C)(C)O2"
observation_type = "TGI"
meas_value = "> 100 µM"

[[record]]
compound = "Cc1nc2ccc(S(=O)(=O)NS(=O)(=O)c3ccc(-c4ccccc4)cc3)cc2c(=O)n1NS(=O)(=O)c1ccc(-c2ccccc2)cc1"
observation_type = "TGI"
meas_value = "> 100 µM"

[[record]]
compound = "Oc1ccc(/C=C/c2cccc(/C=C/c3ccc(O)c(O)c3)n2)cc1O"
observation_type = "TGI"
meas_value = "90.5 µM"

[[record]]
compound = "C/C(=N\\NC(=S)N1CCC(N2CCCCC2)CC1)c1ccccn1"
observation_type = "TGI"
meas_value = "5.87 µM"

[[record]]
compound = "O=Cc1ccc(OC[C@H]2COC(=O)N2)cc1"
observation_type = "TGI"
meas_value = "> 100 µM"

[[record]]
compound = "Nc1ccc(-c2nc3ccc(F)cc3s2)cc1Cl"
observation_type = "TGI"
meas_value = "> 100 µM"

[[record]]
compound = "COC(=O)c1c(CC(Cc2ccc3c(c2)CCCC3)C(=O)O)ccc2c1CCCC2 (configuration not stated)"
observation_type = "TGI"
meas_value = "> 100 µM"

[[record]]
compound = "O=C1NC(Nc2ccccc2)=N/C1=C\\c1c(Cl)cccc1Cl"
observation_type = "TGI"
meas_value = "> 100 µM"

[[record]]
compound = "C=C1C(=O)C23[C@H](O)C1CC[C@H]2[C@]12COC3(O)[C@@H](O)[C@@H]1C(C)(C)CC[C@@H]2O"
observation_type = "TGI"
meas_value = "4.89 µM"

[[record]]
compound = "CCOC(=O)c1sc2c(c1OC(=O)c1cc(OC)c(OC)c(OC)c1)c(=O)n(-c1ccccc1)c(=S)n2-c1ccccc1"
observation_type = "TGI"
meas_value = "> 100 µM"

[[record]]
compound = "O=C1/C(=C\\c2ccco2)Oc2ccccc21"
observation_type = "TGI"
meas_value = "> 100 µM"

[[record]]
compound = "ClCc1cccc(Cn2cnc3c(Cl)nc(Cl)nc32)c1"
observation_type = "TGI"
meas_value = "5.85 µM"

[[record]]
compound = "CCC1=CCN(c2cc(C)ccn2)OC1c1ccccc1 (configuration not stated)"
observation_type = "TGI"
meas_value = "> 100 µM"

